Every entry's value here was drawn from the supplement of paper PMC3334620.

Target: Stb4 (UniProt P50104)
Sequence (P50104 whole entry): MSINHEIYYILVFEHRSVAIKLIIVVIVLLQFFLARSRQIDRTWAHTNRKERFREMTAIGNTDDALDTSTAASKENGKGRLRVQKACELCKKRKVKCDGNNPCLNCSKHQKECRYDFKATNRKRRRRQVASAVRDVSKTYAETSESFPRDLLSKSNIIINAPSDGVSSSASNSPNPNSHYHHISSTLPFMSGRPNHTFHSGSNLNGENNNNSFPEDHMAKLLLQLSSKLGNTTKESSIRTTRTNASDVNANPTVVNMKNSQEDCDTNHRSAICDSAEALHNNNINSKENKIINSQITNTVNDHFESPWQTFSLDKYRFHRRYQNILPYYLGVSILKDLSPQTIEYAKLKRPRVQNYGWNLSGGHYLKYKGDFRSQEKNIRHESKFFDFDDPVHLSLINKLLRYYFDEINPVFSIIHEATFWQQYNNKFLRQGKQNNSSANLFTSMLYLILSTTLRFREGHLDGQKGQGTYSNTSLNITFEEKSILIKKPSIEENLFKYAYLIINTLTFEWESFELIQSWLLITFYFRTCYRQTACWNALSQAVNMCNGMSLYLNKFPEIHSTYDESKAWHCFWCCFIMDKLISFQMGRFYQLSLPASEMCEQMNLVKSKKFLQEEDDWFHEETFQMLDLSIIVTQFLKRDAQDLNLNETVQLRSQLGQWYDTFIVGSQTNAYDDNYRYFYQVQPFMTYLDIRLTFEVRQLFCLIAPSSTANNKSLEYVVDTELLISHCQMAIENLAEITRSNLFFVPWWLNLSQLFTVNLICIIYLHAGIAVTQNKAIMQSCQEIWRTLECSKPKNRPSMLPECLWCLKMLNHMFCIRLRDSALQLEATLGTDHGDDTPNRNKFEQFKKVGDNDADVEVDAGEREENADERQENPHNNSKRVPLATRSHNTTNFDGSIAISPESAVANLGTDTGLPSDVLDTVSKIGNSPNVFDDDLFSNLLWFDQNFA
Assay: PBM E-score (8-mer binding enrichment) (E-score (-0.5 to 0.5)); higher = stronger / more preferred TF binding
Conditions: protein concentration: 200 nM; construct: GST-DNA-binding domain
In all, about 33,000 sequences were measured (“E-score (-0.5 to 0.5)”: median about -0.056, highest 2% from about 0.38 on). This excerpt belongs to a sample that is enriched for the highest values.
Experimental Readout: PBM E-score
Respond using a number only.

AACTCGGG: 0.383

In the following, a different sequence is considered.
Value of measured PBM E-score for the entry ACGATCCG : 0.399

* * *

Biological target: Stb4 (UniProt P50104)
Test: PBM E-score (8-mer binding enrichment) (E-score (-0.5 to 0.5)); higher = stronger / more preferred TF binding
Conditions: protein concentration: 200 nM; construct: GST-DNA-binding domain
Over roughly 33,000 sequences, “E-score (-0.5 to 0.5)” has its median near -0.056; the highest 2% begin near 0.38. For the sample, the highest values were picked, then their nearest neighbours and some sequences at random.
Experimental Readout: PBM E-score
Give the value as a plain number.

ATTACACA: -0.13
CACTCGTA: -0.292
ATAGTCGC: -0.076
CACATCCC: 0.187

// recorded PBM E-score for ATGATCCA : -0.032
